The values you see were collected from the RNAGym collection of RNA variant scans (doi:10.7554/elife.80360).

B1: HDV Ribozyme (parent)
chain: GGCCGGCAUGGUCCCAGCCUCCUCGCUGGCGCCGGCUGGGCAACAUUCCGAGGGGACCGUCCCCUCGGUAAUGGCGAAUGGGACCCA

Variants of: B1
Experiment: self-cleavage, relative activity (ratio to wild type); higher = more cleavage; co-transcriptional
Below, each of the variants is paired with its reported self-cleavage value.

[
  {
    "mutations": "U9A C24A",
    "self-cleavage": 0.914
  },
  {
    "mutations": "C75G A78C",
    "self-cleavage": 0.151
  },
  {
    "mutations": "C36G U72A",
    "self-cleavage": 0.138
  },
  {
    "mutations": "C49U U72C",
    "self-cleavage": 0.554
  },
  {
    "mutations": "U12G A71G",
    "self-cleavage": 0.594
  },
  {
    "mutations": "A8C G68U",
    "self-cleavage": 0.943
  }
]
